assay details: in vitro
Type: cell-based
measurement conditions: human, Huh-luc/neo-ET cells, MTT, culturing for two days; read-out: CC50: 50% of the cell cytotoxic concentration
endpoint name: CC50

Exam item: Requested read-out: CC50. Entry: CC(=O)OC1C(OC(C)=O)C2(C)C(OC(=O)C(C)C)OCC3(C1O)C2CC(O)C1(C)C3C(=O)C(OC(C)=O)C2(C)C(c3ccoc3)CC3OC321 (stereo not shown)
Marked response: > 50 µg/mL
